# test protocol: Half life in CD-1 mouse at 20 mg/kg administered via oral gavage by LC-MS/MS analysis
# Format: ADME, organism-based
# condition details: in vivo
quantity measured: half-life (min)
# unit: min | format: bare number

Task: Fill in: half-life of "O=C(Nc1ccccc1)N1CCN(c2cccc3[nH]ccc23)CC1" is ___
Result: 42

----------
Recorded pIC50 values for a group of compounds are listed next.
# target or test system: Aspartate aminotransferase, cytoplasmic (Homo sapiens, UniProt P17174)
# Sequence (P17174 whole entry): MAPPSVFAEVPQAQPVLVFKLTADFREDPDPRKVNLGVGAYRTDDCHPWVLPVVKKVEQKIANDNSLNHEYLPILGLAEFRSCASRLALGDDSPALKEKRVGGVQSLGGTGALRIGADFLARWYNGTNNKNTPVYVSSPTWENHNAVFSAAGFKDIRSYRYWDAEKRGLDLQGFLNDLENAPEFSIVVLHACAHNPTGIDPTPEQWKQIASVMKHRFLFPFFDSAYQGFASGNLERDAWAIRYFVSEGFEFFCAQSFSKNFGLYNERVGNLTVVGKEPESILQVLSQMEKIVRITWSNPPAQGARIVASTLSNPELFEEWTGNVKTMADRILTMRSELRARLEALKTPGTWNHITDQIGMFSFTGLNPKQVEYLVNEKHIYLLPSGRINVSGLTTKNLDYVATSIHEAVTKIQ
pIC50: −log10 of the molar value.

O=C(NCCc1c[nH]c2ccccc12)Nc1ccc(Cl)cc1Cl | 4.49
CNC(=O)c1ccc(NC(=O)N2CCN(c3cccc4[nH]ccc34)CC2)cc1 | < 4.00
O=C(Nc1cccnc1)N1CCN(c2cccc3[nH]ccc23)CC1 | < 4.00
N#Cc1cccc(NC(=O)N2CCN(c3cccc4[nH]ccc34)CC2)c1 | < 4.00
CNC(=O)N1CCN(c2cccc3[nH]ccc23)CC1 | < 4.00

Task: Fill in: pIC50 of "O=C(NCCc1c[nH]c2ccccc12)Nc1ccc(OC(F)(F)F)cc1" is ___
Result: 4.20

Task: Fill in: pIC50 of "O=C(Nc1ccccn1)N1CCN(c2cccc3[nH]ccc23)CC1" is ___
Result: < 4.00

Task: Fill in: pIC50 of "COc1ccc(NC(=O)N2CCN(c3cccc4[nH]ccc34)CC2)c(OC)c1" is ___
Result: < 4.00

Task: Fill in: pIC50 of "O=C(Nc1ccc2scnc2c1)N1CCN(c2cccc3[nH]ccc23)CC1" is ___
Result: 4.12

Task: Fill in: pIC50 of "O=C(Nc1cc(Cl)ccc1Cl)N1CCN(c2cccc3[nH]ccc23)CC1" is ___
Result: < 4.00

Task: Fill in: pIC50 of "O=C(Nc1ccc(Cc2ccccc2)cc1)N1CCN(c2cccc3[nH]ccc23)CC1" is ___
Result: < 4.00
